Cited source for all entries: the supplement of paper PMC12645437

Kindly state log2 fold change of degron read counts for each of the entries shown.
Target: T1, CRBN, Q96SW2;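 note: pooled lentiviral library of zinc finger degron-EGFP fusions in mCherry-positive Jurkat cells, FACS-sorted after compound exposure, with degron abundance counted by next-generation sequencing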
T1 chain: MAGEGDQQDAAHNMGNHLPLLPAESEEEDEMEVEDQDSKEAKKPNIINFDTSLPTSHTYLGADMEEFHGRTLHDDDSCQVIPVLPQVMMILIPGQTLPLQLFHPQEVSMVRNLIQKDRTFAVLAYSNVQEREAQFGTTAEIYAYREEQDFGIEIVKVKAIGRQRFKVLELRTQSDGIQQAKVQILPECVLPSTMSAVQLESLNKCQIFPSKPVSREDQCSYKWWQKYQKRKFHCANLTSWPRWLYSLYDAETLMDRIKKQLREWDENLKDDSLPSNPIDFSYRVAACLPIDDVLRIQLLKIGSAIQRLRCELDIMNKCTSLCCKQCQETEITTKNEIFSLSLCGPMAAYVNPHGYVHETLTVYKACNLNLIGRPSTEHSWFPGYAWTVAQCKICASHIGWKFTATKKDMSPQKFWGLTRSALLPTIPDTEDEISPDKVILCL
Assay: log2 fold change of degron read counts, EGFP-low vs EGFP+ sorted cells (limma voom), compound-induced degradation; higher = more compound-induced degradation of the degron-EGFP fusion; degrons are variants of IKZF1/3 zinc finger 2; compound dose not given here
Settings: Jurkat; 18 h; compound: compound 19 (5-tert-butyl-thalidomide)
The full ranking holds about 8,300 sequences; the median of “log2 fold change of degron read counts, EGFP-low vs EGFP+ sorted cells (limma voom), compound-induced degradation” is about -1.1, and the highest 2% start at about 3.2. For the sample, the highest values were picked, then their nearest neighbours and some sequences at random.

*Q* Determine its reported log2 fold change of degron read counts: LLCNQCGFMCTQKGNLLRHIKL [46L_47L_49N_50Q_52G_53F_54M_55C_67L_, Q9UKT9]
*A* -1.85

*Q* Write down log2 fold change of degron read counts measured for item FNCNICGACFTQKGNLLRHIKL [46F_47N_49N_50I_52G_53A_54C_55F_67L_, Q9UKT9]
*A* 0.853

*Q* Supply log2 fold change of degron read counts value. Item: FTCPQCGAAFTQKGNLLRHIKL [46F_47T_49P_50Q_52G_53A_54A_55F_67L_, Q9UKT9]
*A* -0.476

*Q* Assign log2 fold change of degron read counts to the following record: LCCEICGFKCTQKGNLLRHIKL [46L_47C_49E_50I_52G_53F_54K_55C_67L_, Q9UKT9]
*A* 2

*Q* Answer with the recorded log2 fold change of degron read counts of LICEICGFKCTQKGNLLRHIKL [46L_47I_49E_50I_52G_53F_54K_55C_67L_, Q9UKT9] only.
*A* 0.236

*Q* State its log2 fold change of degron read counts for this sequence: FNCPICGRDFTQKGNLLRHIKL [46F_47N_49P_50I_52G_53R_54D_55F_67L_, Q9UKT9]
*A* -1.89

*Q* Consider the sequence FWCNQCGHTFTQKGNLLRHIKL [46F_47W_49N_50Q_52G_53H_54T_55F_67L_, Q9UKT9] and give its recorded log2 fold change of degron read counts.
*A* -1.74

*Q* Fill in reported log2 fold change of degron read counts for this entry: LWCEICGFKCTQKGNLLRHIKL [46L_47W_49E_50I_52G_53F_54K_55C_67L_, Q9UKT9]
*A* 3.29

*Q* Look up and report measured log2 fold change of degron read counts for this entry: FFCSVCGHWFTQKGNLLRHIKL [46F_47F_49S_50V_52G_53H_54W_55F_67L_, Q9UKT9]
*A* -1.15

*Q* Given LFCEICGFKCTQKGNLLRHIKL [46L_47F_49E_50I_52G_53F_54K_55C_67L_, Q9UKT9] , respond with its log2 fold change of degron read counts.
*A* 3.22

*Q* Determine its reported log2 fold change of degron read counts: LACEICGFKCTQKGNLLRHIKL [46L_47A_49E_50I_52G_53F_54K_55C_67L_, Q9UKT9]
*A* 3.4
